Recorded inhibition, one value per entry.
Test: PAX8 transcriptional activity inhibition in RMG-I – RMG-I cells, luciferase, single concentration, primary screen (AID 652154);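 further: luciferase light reporting Pax8 driven TPO promoter activity; plate controls were median of neutral control wells for no effect and mitoxantrone controls for full effect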
Details: RMG-I TPO-luciferase reporter, SteadyGlo, 24 h; at 12.6 µM; stronger effect = higher value
The campaign covered roughly 360,000 compounds. About 4,200 (1.2%) were called active. This excerpt belongs to a sample that is enriched for actives.
State just the number; it will be interpreted in %.

Ask | So what's the measured inhibition for this one? COc1ccc(S(=O)(=O)N2CCCCN3[C@H](CO)[C@H](c4ccc(C5=CCCCC5)cc4)[C@@H]3C2)cc1
Reply | 69.6

Ask | Quick one: COc1ccccc1C1C2=C(COC2=O)Nc2cc3c(cc21)OCO3 (stereo unspecified)
Reply | 85.6

Ask | Likewise for Cc1ccc(-c2ccc3c(c2)O[C@H](CN(C)C(=O)CC2CC2)[C@@H](C)CN([C@H](C)CO)S3(=O)=O)cc1 ?
Reply | 11.8

More entries:
Ask | // query inhibition value for entry O=C(CC1CC1)N1CC[C@@H]2[C@H](CO)Nc3ccc(-c4ccc(F)cc4)cc3[C@@H]21
Reply | 14

Ask | Continue with CC(=O)Nc1cccc(NC(=O)c2ccc3c(c2)CCN3S(C)(=O)=O)c1
Reply | -7.18

Ask | Please do the same for O=C1NC(c2cc3c(cc2Cl)OCO3)Oc2ccccc21 (stereo unspecified) as well.
Reply | -6.52
